pre-steady-state target cleavage rate overview
System: MIWI (PIWIL1) piRISC loaded with L1MC piRNA (30 nt);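 note: 1 nM active piRISC with 0.1 nM target library at 33 °C single turnover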
Test: pre-steady-state target cleavage rate (min^-1); higher = faster piRNA-guided slicing of the target
Conditions: guide: L1MC piRNA 5'p-UAACUAAAUACUAUGCAAGCUGUAGGUCCU; auxiliary factor: 500 nM mouse GTSF1
Whole data set: some 8,200 sequences, median “pre-steady-state target cleavage rate” near 0.024, cut for the highest 2% near 1.3. The sample holds the highest values, similar sequences and a random draw of the others, so the mix is not that of the screen.
// no unit string in output, number only

Answered cases to consult:
{"chain": "UCGACGAUCAGCUUGCAUAGUAUUUAGUAA", "pre-steady-state target cleavage rate": 1.05}
{"chain": "UCCUGCUACAGCUUGGUUAGUAUUUUCAAA", "pre-steady-state target cleavage rate": 0.00524}
{"chain": "UCCUCCUACUGCUAGCAUAGUAUUUAGUUA", "pre-steady-state target cleavage rate": 0.871}

**Query** Any idea what pre-steady-state target cleavage rate came out for "UCGACCAUGAGCUUGCAUAGUAUUUAGUAA" on MIWI (PIWIL1) piRISC loaded with L1MC piRNA (30 nt)?;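 note: 1 nM active piRISC with 0.1 nM target library at 33 °C single turnover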
**Result** 0.804

**Query** Any idea what pre-steady-state target cleavage rate came out for "UCCUGGAUGUCCUUGCAUAGUAUUUAGUGUA" on MIWI (PIWIL1) piRISC loaded with L1MC piRNA (30 nt)?
**Result** 0.0232

**Query** Any idea what pre-steady-state target cleavage rate came out for "AGGACGAUCAGCUUGCAUAGUAUUUAGUUA" on MIWI (PIWIL1) piRISC loaded with L1MC piRNA (30 nt)?;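 note: 1 nM active piRISC with 0.1 nM target library at 33 °C single turnover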
**Result** 1.43

**Query** Any idea what pre-steady-state target cleavage rate came out for "UGGACCUACAGCAUGGAUAGUAUUUAGUUA" on MIWI (PIWIL1) piRISC loaded with L1MC piRNA (30 nt)?;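 note: 1 nM active piRISC with 0.1 nM target library at 33 °C single turnover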
**Result** 1.47

**Query** Any idea what pre-steady-state target cleavage rate came out for "UGGACGAUCAGCUUGCAUAGUAUUUAGAAA" on MIWI (PIWIL1) piRISC loaded with L1MC piRNA (30 nt)?;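 note: 1 nM active piRISC with 0.1 nM target library at 33 °C single turnover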
**Result** 0.499

**Query** Any idea what pre-steady-state target cleavage rate came out for "AGGACGAUCAGCUUGCAUAGUAUUUAGAAA" on MIWI (PIWIL1) piRISC loaded with L1MC piRNA (30 nt)?;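 note: 1 nM active piRISC with 0.1 nM target library at 33 °C single turnover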
**Result** 0.384

**Query** Any idea what pre-steady-state target cleavage rate came out for "UGGACCUACAGCAUGCUUAGUAUUUAGUUA" on MIWI (PIWIL1) piRISC loaded with L1MC piRNA (30 nt)?;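 note: 1 nM active piRISC with 0.1 nM target library at 33 °C single turnover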
**Result** 0.877

**Query** Any idea what pre-steady-state target cleavage rate came out for "UGGACGAUCAGCUUGCAUAGUAUUUAGUAA" on MIWI (PIWIL1) piRISC loaded with L1MC piRNA (30 nt)?;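 note: 1 nM active piRISC with 0.1 nM target library at 33 °C single turnover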
**Result** 0.953

**Query** Any idea what pre-steady-state target cleavage rate came out for "UCCUGGAUGUGCUAGCAUAGAAUUUAGUUA" on MIWI (PIWIL1) piRISC loaded with L1MC piRNA (30 nt)?;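 note: 1 nM active piRISC with 0.1 nM target library at 33 °C single turnover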
**Result** 0.00695

* * *

Test system: MIWI (PIWIL1) piRISC loaded with L1MC piRNA (30 nt);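 note: 1 nM active piRISC with 0.1 nM target library at 33 °C single turnover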
Assay: pre-steady-state target cleavage rate (min^-1); MIWI and MILI are mouse PIWI proteins and EfPiwi is from a freshwater sponge; tags in brackets are library labels; higher = faster piRNA-guided slicing of the target;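 note: 1 nM active piRISC with 0.1 nM target library at 33 °C single turnover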
Conditions: guide: L1MC piRNA 5'p-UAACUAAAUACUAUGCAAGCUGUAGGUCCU; auxiliary factor: none (no GTSF1)
Whole data set: some 8,200 sequences, median “pre-steady-state target cleavage rate” near 0.024, cut for the highest 2% near 1.3. Only a selection was taken, and the highest values are over-represented in it overall.
Kind request: treat 0.07 as inclusive, so pre-steady-state target cleavage rate at 0.07 or higher is 1 (yes), anything lower is 0 (no).

{"chain": "UCCUCGCUACAGCUUGCAUAGUAUUUAGUUA", "class_label": "0 (no)"}
{"chain": "UCCUGUUACAGCUUGCAUAGUAUUUAGUUA", "class_label": "1 (yes)"}
{"chain": "UCCUCAUACAGCUUGCAUAGUAUUUAGUUA", "class_label": "0 (no)"}

Could you now look at the following sequence, please?
**Query** In plain terms: is recorded pre-steady-state target cleavage rate at least 0.07 for "UCCUCUUACAGCUUGCAUAGUAUUUAGUUA" ?
**Result** 0 (no)
